# key: entry, value: EC50
biological target: Rab9 promoter; assay: qHTS of Rab9 Promoter-Luciferase Reporter Gene Assay (firefly, Huh7); conditions: 24 hours
measurement.label: EC50 (µM)

{"smiles.notation": "Cc1cccc(C)c1C(=O)Nc1cccc(S(=O)(=O)N(C)C)c1", "result": 5.5}
{"smiles.notation": "CC(=O)c1c(C)[nH]c(C(=O)Nc2cccc(S(=O)(=O)N3CCOCC3)c2)c1C", "result": 12.2}
{"smiles.notation": "CC(=O)c1c(C)[nH]c(C(=O)Nc2cccc(S(=O)(=O)N(C)C)c2)c1C", "result": 6.1}
{"smiles.notation": "Cc1ccc(C(=O)Nc2cccc(S(=O)(=O)N(C)C)c2)c(C)c1", "result": 12.2}
{"smiles.notation": "CC(=O)c1cccc(C(=O)Nc2cccc(S(=O)(=O)N(C)C)c2)c1", "result": 19.4}
{"smiles.notation": "CC(=O)c1c(C)[nH]c(C(=O)Nc2cccc(S(=O)(=O)N3CCN(C)CC3)c2)c1C", "result": 10.9}
{"smiles.notation": "Cc1cc(C)c(C(=O)Nc2cccc(S(=O)(=O)N(C)C)c2)[nH]1", "result": 38.7}
{"smiles.notation": "CC(=O)c1c(C)[nH]c(C(=O)Nc2cccc(S(=O)(=O)N3CCCCC3)c2)c1C", "result": 1.7}
{"smiles.notation": "Cc1cccc(C(=O)Nc2cccc(S(=O)(=O)N(C)C)c2)c1", "result": 19.4}

----------
experiment: Blood-brain barrier (BBB) penetration in C57BL6 mice; assay type: in vivo; conditions: C57BL6, mouse, plasma, subcutaneous; 30 mg/kg injection, at one hour; read-out: plasma concentration

{"compound": "COc1ccc(NC(=O)c2cnccc2C)cc1S(=O)(=O)Nc1ccc(Br)cc1 [Example 50]", "concentration at 1 h": "~3000 ng/mL"}

----------
molecular target: NPC1 promoter; test: qHTS of NPC1 Promoter-Luciferase Reporter Gene Assay (firefly, Huh7); format: cell-based, human; settings: 24 hours
pEC50: −log10 of the molar value.
# key: entry, value: pEC50

{"smiles.notation": "COc1ccc(NC(=O)c2[nH]c(C)c(C(C)=O)c2C)cc1S(=O)(=O)Nc1ccc(Br)cc1", "target.desc": "NPC1 promoter", "pEC50": 6.15}
{"smiles.notation": "Cc1cc(C)c(C(=O)Nc2cccc(S(=O)(=O)N(C)C)c2)[nH]1", "target.desc": "NPC1 promoter", "pEC50": 4.76}
{"smiles.notation": "CCc1ccc(NC(=O)c2[nH]c(C)c(C(C)=O)c2C)cc1S(=O)(=O)Nc1ccc(Br)cc1", "target.desc": "NPC1 promoter", "pEC50": 6.15}
{"smiles.notation": "CN(C)S(=O)(=O)c1cccc(NC(=O)c2ccccc2C(F)(F)F)c1", "target.desc": "NPC1 promoter", "pEC50": 5.92}
{"smiles.notation": "CCN(CC)S(=O)(=O)c1cccc(NC(=O)c2[nH]c(C)c(C(C)=O)c2C)c1", "target.desc": "NPC1 promoter", "pEC50": 5.11}
{"smiles.notation": "CC(=O)c1c(C)[nH]c(C(=O)Nc2cccc(S(=O)(=O)Nc3ccc(Br)c(F)c3)c2)c1C", "target.desc": "NPC1 promoter", "pEC50": 4.81}
{"smiles.notation": "COc1ccc(NC(=O)c2[nH]c(C)c(C(C)=O)c2C)cc1S(=O)(=O)Nc1ccc(C#N)cc1", "target.desc": "NPC1 promoter", "pEC50": 5.06}
{"smiles.notation": "CC(=O)c1c(C)[nH]c(C(=O)Nc2ccc(C)c(S(=O)(=O)Nc3ccc(Br)cc3)c2)c1C", "target.desc": "NPC1 promoter", "pEC50": 5.77}
{"smiles.notation": "CC(=O)c1c(C)[nH]c(C(=O)Nc2cccc(S(=O)(=O)Nc3ccc(Br)cc3)c2)c1C", "target.desc": "NPC1 promoter", "pEC50": 5.37}
{"smiles.notation": "CC(=O)c1cccc(C(=O)Nc2cccc(S(=O)(=O)N(C)C)c2)c1", "target.desc": "NPC1 promoter", "pEC50": 5.07}
{"smiles.notation": "CC(=O)c1c(C)[nH]c(C(=O)Nc2cccc(S(=O)(=O)N3CCCCC3)c2)c1C", "target.desc": "NPC1 promoter", "pEC50": 5.57}
{"smiles.notation": "Cc1cccc(C(=O)Nc2cccc(S(=O)(=O)N(C)C)c2)c1", "target.desc": "NPC1 promoter", "pEC50": 5.21}
{"smiles.notation": "Cc1ccccc1C(=O)Nc1cccc(S(=O)(=O)N(C)C)c1", "target.desc": "NPC1 promoter", "pEC50": 5.32}
{"smiles.notation": "CCc1c(C)[nH]c(C(=O)Nc2cccc(S(=O)(=O)N(C)C)c2)c1C", "target.desc": "NPC1 promoter", "pEC50": 5.07}
{"smiles.notation": "CCc1ccc(NC(=O)c2[nH]c(C)c(C(C)=O)c2C)cc1S(=O)(=O)Nc1cccc(C#N)c1", "target.desc": "NPC1 promoter", "pEC50": 5.57}
{"smiles.notation": "Cc1ccc(C(=O)Nc2cccc(S(=O)(=O)N(C)C)c2)c(C)c1", "target.desc": "NPC1 promoter", "pEC50": 5.27}
{"smiles.notation": "CCc1ccc(NC(=O)c2[nH]c(C)c(C(C)=O)c2C)cc1S(=O)(=O)Nc1ccc(C#N)cc1", "target.desc": "NPC1 promoter", "pEC50": 5.47}
{"smiles.notation": "CC(=O)c1c(C)c(C(=O)Nc2cccc(S(=O)(=O)N(C)C)c2)n(C)c1C", "target.desc": "NPC1 promoter", "pEC50": 4.67}
{"smiles.notation": "CC(=O)c1c(C)[nH]c(C(=O)Nc2cccc(S(=O)(=O)N3CCOCC3)c2)c1C", "target.desc": "NPC1 promoter", "pEC50": 5.08}
{"smiles.notation": "Cc1cccc(C)c1C(=O)Nc1cccc(S(=O)(=O)N(C)C)c1", "target.desc": "NPC1 promoter", "pEC50": 5.27}
{"smiles.notation": "CC(=O)c1c(C)[nH]c(C(=O)Nc2cccc(S(=O)(=O)N3CCCC3)c2)c1C", "target.desc": "NPC1 promoter", "pEC50": 5.21}
{"smiles.notation": "COc1ccc(NC(=O)c2[nH]c(C)c(C(C)=O)c2C)cc1S(=O)(=O)Nc1cccc(C#N)c1", "target.desc": "NPC1 promoter", "pEC50": 6.05}

----------
tested on: Rab9 promoter; experiment: qHTS of Rab9 Promoter-Luciferase Reporter Gene Assay (firefly, Huh7); type: cell-based, human; settings: 24 hours
measurement.label: Rab9 Eff.

{"smiles.notation": "Cc1ccc(C(=O)Nc2cccc(S(=O)(=O)N(C)C)c2)cc1", "measurement.label": "Rab9 Eff.", "result": "54%"}
{"smiles.notation": "CC(=O)c1cccc(C(=O)Nc2cccc(S(=O)(=O)N(C)C)c2)c1", "measurement.label": "Rab9 Eff.", "result": "94%"}
{"smiles.notation": "Cc1cc(C)c(C(=O)Nc2cccc(S(=O)(=O)N(C)C)c2)[nH]1", "measurement.label": "Rab9 Eff.", "result": "82%"}
{"smiles.notation": "Cc1cccc(C(=O)Nc2cccc(S(=O)(=O)N(C)C)c2)c1", "measurement.label": "Rab9 Eff.", "result": "75%"}
{"smiles.notation": "Cc1cccc(C)c1C(=O)Nc1cccc(S(=O)(=O)N(C)C)c1", "measurement.label": "Rab9 Eff.", "result": "131%"}

----------
# key: entry, value: % storage at 1 μM
Test system: NPC1 patient cell fibroblasts
Experiment: Filipin Staining Assay to Detect Free Cholesterol Accumulation in NPC Cells
Assay type: cell-based, human
Settings: filipin fluorescence relative to untreated cells; 1 μM
Experimental: Filipin Staining Assay to Detect Free Cholesterol Accumulation in NPC Cells. Compounds were evaluated for their effect on the NPC1 cellular phenotype by staining treated NPC1 patient cell fibroblasts with filipin, which recognizes free unesterified cholesterol. […] After 24-48 hours, cells were stained with filipin and scored under the 40× magnification filter using the integrated morphometry function in the Metavue program (Molecular Devices). […]
measurement.label: % storage at 1 μM

{"compound": "COc1ccc(NC(=O)C23CC4CC(CC(C4)C2)C3)cc1S(=O)(=O)Nc1ccc(Br)cc1 [Example 47]", "result": "33%"}
{"compound": "COc1ccc(NC(=O)c2c[nH]c(-c3ccccc3)n2)cc1S(=O)(=O)Nc1ccc(Br)cc1 [Example 57]", "result": "41%"}
{"compound": "CC(=O)c1c(C)[nH]c(C(=O)Nc2cccc(S(=O)(=O)N(C)C)c2)c1C [Example 1]", "result": "22%"}
{"compound": "CC(=O)c1c(C)[nH]c(C(=O)Nc2cccc(S(=O)(=O)Nc3cccc(C#N)c3)c2)c1C [Example 31]", "result": "56%"}
{"compound": "CCc1ccc(NC(=O)c2[nH]c(C)c(C(C)=O)c2C)cc1S(=O)(=O)Nc1cccc(C#N)c1 [Example 33]", "result": "35%"}
{"compound": "COc1ccc(NC(=O)c2ncc[nH]2)cc1S(=O)(=O)Nc1ccc(Br)cc1 [Example 55]", "result": "30%"}
{"compound": "COc1ccc(NC(=O)c2[nH]c(C)c(C(C)=O)c2C)cc1S(=O)(=O)Nc1ccc(Cl)cc1 [Example 58]", "result": "58%"}
{"compound": "CCc1ccc(NC(=O)c2[nH]c(C)c(C(C)=O)c2C)cc1S(=O)(=O)Nc1ccc(C#N)cc1 [Example 38]", "result": "62%"}
{"compound": "COc1ccc(NC(=O)c2[nH]c(C)c(C(C)=O)c2C)cc1S(=O)(=O)Nc1cccc(C#N)c1 [Example 40]", "result": "29%"}
